# TESTED_ON: Calcium-activated potassium channel subunit alpha-1 (Homo sapiens) + Leucine-rich repeat-containing protein 26 (Homo sapiens) (UniProt Q12791+Q2I0M4)
# Sequence (Q2I0M4 whole entry, looked up, one chain of several): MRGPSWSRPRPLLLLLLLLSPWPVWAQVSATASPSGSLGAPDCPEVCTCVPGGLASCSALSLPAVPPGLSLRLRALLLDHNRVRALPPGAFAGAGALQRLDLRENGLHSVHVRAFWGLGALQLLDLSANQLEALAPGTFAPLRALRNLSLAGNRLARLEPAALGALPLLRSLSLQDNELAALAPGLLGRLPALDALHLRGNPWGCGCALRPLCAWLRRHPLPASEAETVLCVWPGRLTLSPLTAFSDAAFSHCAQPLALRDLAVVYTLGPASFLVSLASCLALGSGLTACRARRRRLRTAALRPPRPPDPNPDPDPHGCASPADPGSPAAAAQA
# TEST_DESCRIPTION: modulators of BK channel variants, profiling panel, selectivity assay, cell-based, U2OS BacMam, thallium flux, beta subunits (AID 1259406);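 note: initial slope of Thallos dye fluorescence rise after thallium is added; log ratio against the mean of 0.3% DMSO vehicle wells on the same plate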
# MEASUREMENT_PARAMETERS: F380Y/Slo1WT/gamma1, at 30 µM
MEASUREMENT_KIND: log fold change Tl+ flux
Numbers only.

Solved cases below.
MOLECULE	log fold change Tl+ flux
Cc1cc(C)n2nc(Sc3ncccc3[N+](=O)[O-])nc2n1	0.0468
CCOC(=O)CCC(=O)OC1C(OC2C(C)C(OC3CC(C)(OC)C(O)C(C)O3)C(C)C(=O)OC(CC)C(C)(O)C(O)C(C)C(=O)C(C)CC2(C)O)OC(C)CC1N(C)C (configuration not stated)	-0.0035
C/C(=C\C(=O)OCCCCCCCCC(=O)O)C[C@@H]1OC[C@H](C[C@@H]2O[C@H]2[C@@H](C)[C@H](C)O)[C@@H](O)[C@H]1O	0.0402

Report log fold change Tl+ flux for every entry below.
1. CSc1nc2cc(Oc3cccc(Cl)c3Cl)c(Cl)cc2[nH]1
2. C[n+]1ccccc1C=NO
3. COc1cccc(C=NNC(=O)C2CCCN(C(=S)NNC3CC4C=CC3C4)CC2)c1O (configuration not stated)
4. O=C(NC(=O)c1ccccc1Oc1ccc(Cl)cc1Cl)Nc1cc(Cl)cc(Cl)c1
5. Oc1c(Cl)c(Cl)c(Cl)c2ccccc12
6. O=S1(=O)CC(N2CCOCC2)c2ccccc21 (configuration not stated)
7. O=C(c1ncoc1-c1ccccc1)N(Cc1ccccn1)Cc1ccccn1
8. Nc1nc(Cl)nc2c1ncn2[C@H]1C[C@H](O)[C@@H](CO)O1

A:
1: -0.000443; 2: -0.000474; 3: 0.0309; 4: 0.0199; 5: 0.395; 6: 0.00701; 7: -0.0237; 8: -0.0394

Data credit: PubChem BioAssay
